Recorded conditions: in 1,2-DME (1,2-dimethoxyethane), room temperature
Readout type: Solubility (mol/kg)
Only the number, expressed in mol/kg, is required.

Some compounds with known Solubility results, for comparison:
* O=C1O[B-]2(OC1=O)OC(=O)C(=O)O2.[Li+] [LOB, Lithium-bis(oxalato)borate] | 1.30
* CC1O[B-]2(OC(=O)C(=O)O2)OC1=O.[Li+] (stereo not drawn) [LLOB, Lithium-(lactato,oxalato)borate] | 0.93
* O=C1CC(=O)O[B-]2(O1)OC(=O)CC(=O)O2.[Li+] [LMB, Lithium-bis(malonato)borate] | 0.003
* O=C1CC(=O)O[B-]2(O1)OC(=O)C(=O)O2.[Li+] [LOMB, Lithium-(malonato,oxalato)borate] | 0.20

Now for the compound whose Solubility we want.
Q. I have this compound here, O=C1O[B-]2(OC1=O)OC(=O)c1ccccc1O2.[Li+] [LOSB, Lithium-(oxalato,salicylato)borate] , and I need its recorded Solubility.
A. 0.43

----------
Recorded conditions: in PC (propylene carbonate), room temperature
In this section we review reported Solubility values for a set of molecules.
Please reply with the bare figure in mol/kg and do not write the unit itself.

Q. Given O=C1O[B-]2(OC1=O)OC(=O)c1ccccc1O2.[Li+] [LOSB, Lithium-(oxalato,salicylato)borate] , state its recorded Solubility.
A. 1.50

Q. // returns reported Solubility for input O=C1O[B-]2(OC1=O)OC(=O)C(=O)O2.[Li+] [LOB, Lithium-bis(oxalato)borate]
A. 0.88

Q. For the molecule O=C1CC(=O)O[B-]2(O1)OC(=O)CC(=O)O2.[Li+] [LMB, Lithium-bis(malonato)borate] , what Solubility is on record?
A. 0.02

Q. What value of Solubility has been reported for the following molecule? O=C1CC(=O)O[B-]2(O1)OC(=O)C(=O)O2.[Li+] [LOMB, Lithium-(malonato,oxalato)borate]
A. 0.17

Q. Which Solubility is listed for CC1O[B-]2(OC(=O)C(=O)O2)OC1=O.[Li+] (stereo not drawn) [LLOB, Lithium-(lactato,oxalato)borate] ?
A. 0.17

----------
Recorded conditions: in γ-BL (γ-butyrolactone), room temperature
Measured Solubility by item
Quick reminder: number only, in mol/kg, skip the unit.

# example entries with known answers
* O=C1CC(=O)O[B-]2(O1)OC(=O)CC(=O)O2.[Li+] [LMB, Lithium-bis(malonato)borate] | 0.13
* CC1O[B-]2(OC(=O)C(=O)O2)OC1=O.[Li+] (stereo not drawn) [LLOB, Lithium-(lactato,oxalato)borate] | 0.96
* O=C1CC(=O)O[B-]2(O1)OC(=O)C(=O)O2.[Li+] [LOMB, Lithium-(malonato,oxalato)borate] | 0.62
* O=C1O[B-]2(OC1=O)OC(=O)c1ccccc1O2.[Li+] [LOSB, Lithium-(oxalato,salicylato)borate] | 0.98
* O=C1O[B-]2(OC1=O)OC(=O)C(=O)O2.[Li+] [LOB, Lithium-bis(oxalato)borate] | 1.55

Q. Name the recorded Solubility for CC1O[B-]2(OC1=O)OC(=O)C(C)O2.[Li+] (stereo not drawn) [LLB, Lithium-bis(lactato)borate] .
A. 0.02

----------
Listing of recorded Cond. (conductivity) by entry.
Recorded conditions: in THF, room temperature, at the concentration (mmole/g) printed in the cell to the left
Report as a plain number; the unit mS/cm is understood.

Sample records with Cond. (conductivity):
• CC1O[B-]2(OC1=O)OC(=O)C(C)O2.[Li+] (centres unmarked) [LLB, Lithium-bis(lactato)borate] = 0
• O=C1CC(=O)O[B-]2(O1)OC(=O)CC(=O)O2.[Li+] [LMB, Lithium-bis(malonato)borate] = 0.01
• O=C1O[B-]2(OC1=O)OC(=O)c1ccccc1O2.[Li+] [LOSB, Lithium-(oxalato,salicylato)borate] = 3.17
• O=C1CC(=O)O[B-]2(O1)OC(=O)C(=O)O2.[Li+] [LOMB, Lithium-(malonato,oxalato)borate] = 0.41

Let us move to another entry and its Cond. (conductivity).
Q. Quick check: Cond. (conductivity) of CC1O[B-]2(OC(=O)C(=O)O2)OC1=O.[Li+] (centres unmarked) [LLOB, Lithium-(lactato,oxalato)borate] ?
A. 2.91
